Entry source: paper PMC5540273

Each item that follows carries a reported %Inh.
- Tested on: WNK3
- test conditions: concentration: 1 μM, replicates: in singlicate; n = 1;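 note: KINOMEscan kinase panel screen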
Supply the numeric figure in %, leaving out any unit text.

These solved cases illustrate the format of a correct answer.
compound: Cc1nnc(-c2ccc3ncn(-c4ccc(S(C)=O)cc4)c3c2)o1 (stereo not drawn)
assayed system: WNK3
quantitative readout: 0

compound: COc1ccc(CNC(=O)NC2CCN(c3ccnc(Nc4ccc(F)cc4)n3)C2)cc1 (stereo not drawn) [GSK1379706]
assayed system: WNK3
quantitative readout: 49

compound: CCC(=O)c1c(-c2ccccc2)c2cc(Cl)ccc2c(=O)n1Cc1cc(S(C)(=O)=O)n(CC(F)F)n1
assayed system: WNK3
quantitative readout: 0

compound: COc1cc2ncn(-c3cc(OCc4ccncc4)c(C(N)=O)s3)c2cc1OC [GSK336313]
assayed system: WNK3
quantitative readout: 10

compound: COc1cc2ncn(-c3cc(OCc4ccncc4Br)c(C(N)=O)s3)c2cc1OC [GW854278]
assayed system: WNK3
quantitative readout: 64

Form: compound = O=C(Nc1n[nH]c2cc(-c3ccccc3F)ccc12)C1CC1 [SB-733371] ; %Inh = 0

Form: compound = `CCCNC(=O)Nc1ccc(Oc2ncnc3ccn(C)c23)cc1` ; %Inh = 0

Form: compound = O=C(Nc1n[nH]c2nc(-c3ccccc3)c(Cl)cc12)C1CC1 [SB-734909] ; %Inh = 7

Form: compound = Cc1nn2c(=O)cc(N3CCOCC3)nc2n1Cc1cccc(Cl)c1Cl [GSK2342769] ; %Inh = 13

====

- System: SGK
- test conditions: concentration: 1 μM, replicates: in singlicate; n = 1
experimental endpoint: %Inh (%)
Supply the numeric figure in %, leaving out any unit text.

compound: O=C(Nc1n[nH]c2nc(-c3ccccc3)c(Cl)cc12)C1CC1 [SB-734909]
assayed system: SGK
%Inh, %: 9

compound: COc1cc2nccc(Nc3cccc(Oc4ccccc4)c3)c2cc1OC.Cl [GW284543]
assayed system: SGK
%Inh, %: 37

compound: O=c1cc(N2CCOCC2)nc2n(Cc3ccc(F)c(Cl)c3)ccn12 [GSK2297099]
assayed system: SGK
%Inh, %: 0

Form: compound = `CCc1ccc(-c2ccc3c(c2)-c2nn(C)cc2S(=O)(=O)N3C)cc1` ; %Inh = 0

Form: compound = COc1cccc(C2=C(Nc3cccc(C(=O)O)c3)C(=O)NC2=O)c1 [SB-390770] ; %Inh = 8

====

- Test system: HPK1
- test conditions: concentration: 1 μM, replicates: in singlicate; n = 1
experimental endpoint: %Inh (%)
Supply the numeric figure in %, leaving out any unit text.

These solved cases illustrate the format of a correct answer.
molecule: CN1C(=O)C(Nc2cc(Cl)c(O)c(Cl)c2)=C(c2ccc(Cl)cc2)C1=O
%Inh [%]: 12

molecule: CCC(=O)c1c(-c2ccccc2)c2cc(Cl)ccc2c(=O)n1Cc1cc(C(=O)NC2CC2)n(C)n1
%Inh [%]: 0

molecule: Cc1nn2c(=O)cc(N3CCOCC3)nc2n1Cc1cccc(Cl)c1Cl
%Inh [%]: 32

Form: molecule = `O=C(Nc1n[nH]c2cc(-c3ccccc3F)ccc12)C1CC1` ; %Inh = 8

Form: molecule = `COC(=O)c1c(-c2ccccc2)c2cc(Br)ccc2c(=O)n1Cc1ccc(S(C)(=O)=O)cc1` ; %Inh = 0

====

- System: PKAC-alpha
- Construct: gene PRKACA
- test conditions: concentration: 1 μM, replicates: in singlicate; n = 1
Each item that follows carries a reported %Inh.
Supply the numeric figure in %, leaving out any unit text.

These solved cases illustrate the format of a correct answer.
compound: COc1cc2nccc(Nc3ccc(OCc4ccc(NC(C)=O)cc4)cc3)c2cc1OC.Cl
assayed system: PKAC-alpha
experimental endpoint: %Inh
quantitative readout: 0
--
compound: Nc1n[nH]c2ncc(-c3ccccc3)cc12
assayed system: PKAC-alpha
experimental endpoint: %Inh
quantitative readout: 0
--
compound: CCC(=O)c1c(-c2ccccc2)c2cc(Cl)ccc2c(=O)n1Cc1cc(S(C)(=O)=O)n(CC(N)=O)n1
assayed system: PKAC-alpha
experimental endpoint: %Inh
quantitative readout: 0
--
compound: CN1C(=O)C(Nc2ccccc2)=C(c2ccccc2)C1=O
assayed system: PKAC-alpha
experimental endpoint: %Inh
quantitative readout: 2
--
compound: Cc1ccc(-c2ccc3c(ccc4sc5c(c43)NC[C@@H](C)N=C5N(C)C)n2)cn1
assayed system: PKAC-alpha
experimental endpoint: %Inh
quantitative readout: 0
--
compound: COC(=O)c1c(-c2ccccc2)c2cc(Br)ccc2c(=O)n1Cc1ccc(NC(=O)CCC(=O)O)cc1
assayed system: PKAC-alpha
experimental endpoint: %Inh
quantitative readout: 33
--
compound: Cc1cccc(-c2nc(Nc3ccc4c(cnn4C)c3)c3ccccc3n2)n1
assayed system: PKAC-alpha
experimental endpoint: %Inh
quantitative readout: 0
--
compound: Nc1nc(N)c2nc(-c3ccccc3)[nH]c2n1
assayed system: PKAC-alpha
experimental endpoint: %Inh
quantitative readout: 7
--
compound: COc1cc(OC)cc(-c2cc3cnc(N)nc3nc2NC(=O)NC(C)(C)C)c1
assayed system: PKAC-alpha
experimental endpoint: %Inh
quantitative readout: 0
--
compound: CCC(=O)c1c(-c2ccccc2)c2cc(Cl)ccc2c(=O)n1Cc1cc(S(C)(=O)=O)n(CC(F)F)n1
assayed system: PKAC-alpha
experimental endpoint: %Inh
quantitative readout: 0

Form: compound = `CCc1nc(-c2cccc(C)c2)c(-c2ccncc2)s1` ; %Inh = 0

Form: compound = `Cc1c(Cn2c(C)nn3c(=O)cc(N4CCO[C@H](C)C4)nc23)cccc1C(F)(F)F` ; %Inh = 0

Form: compound = `Nc1n[nH]c2nnc(-c3ccccc3)c(-c3ccccc3)c12` ; %Inh = 0

Form: compound = COc1ccc(Nc2nccc(N3CCC(NS(=O)(=O)c4ccc(NC(C)=O)cc4)C3)n2)cc1 (stereo not shown) ; %Inh = 6

Form: compound = `COc1cccc(C2=C(N(C)c3ccccc3)C(=O)NC2=O)c1` ; %Inh = 0

Form: compound = `CCc1ccc(-c2ccc3c(c2)-c2nn(C)cc2S(=O)(=O)N3C)cc1` ; %Inh = 0

Form: compound = `O=C1NC(=O)C(c2ccccc2)=C1Nc1cccc(O)c1` ; %Inh = 0

Form: compound = `Cc1ccccc1COc1cc(-n2cnc3cc(Cl)ccc32)sc1C(N)=O` ; %Inh = 0

Form: compound = `Nc1ncnc2c1ncn2-c1cccc2ccccc12` ; %Inh = 10

====

- System: IRAK3
- test conditions: concentration: 1 μM, replicates: in singlicate; n = 1
experimental endpoint: %Inh (%)
Supply the numeric figure in %, leaving out any unit text.

Form: molecule = `CCC(=O)c1c(-c2ccccc2)c2cc(Cl)ccc2c(=O)n1Cc1cc(S(C)(=O)=O)n(CC(F)F)n1` ; %Inh = 0

Form: molecule = `Fc1cccc(CSc2nnc(-c3ccc4c(c3)CCO4)o2)c1` ; %Inh = 6

Form: molecule = COc1ccc(CNC(=O)NC2CCN(c3ccnc(Nc4ccc(F)cc4)n3)C2)cc1 (centres unmarked) [GSK1379706] ; %Inh = 0

Form: molecule = COc1cc2nccc(Nc3ccc(OCc4ccc(NC(C)=O)cc4)cc3)c2cc1OC.Cl [GW440135] ; %Inh = 1

Form: molecule = `COc1cc(OC)cc(-c2cc3cnc(N)nc3nc2NC(=O)NC(C)(C)C)c1` ; %Inh = 0

Form: molecule = Nc1ncnc2c1ncn2-c1cccc(F)c1 [SKF-97560] ; %Inh = 0

Form: molecule = COc1cc2nccc(Nc3cccc(Oc4ccccc4)c3)c2cc1OC.Cl [GW284543] ; %Inh = 2

Form: molecule = Nc1n[nH]c2ncc(-c3ccccc3)cc12 [SB-517081] ; %Inh = 3

====

Each item that follows carries a reported %Inh.
- Test system: AAK1
- test conditions: concentration: 1 μM, replicates: in singlicate; n = 1
Supply the numeric figure in %, leaving out any unit text.

compound: COc1cc(OC)cc(-c2cc3cnc(N)nc3nc2NC(=O)NC(C)(C)C)c1
%Inh / %: 15

Form: compound = `COC(=O)c1c(-c2ccccc2)c2cc(Br)ccc2c(=O)n1Cc1ccc(S(C)(=O)=O)cc1` ; %Inh = 27

Form: compound = `COc1ccc(-n2cnc3c(N)ncnc32)cc1` ; %Inh = 15

Form: compound = `Cn1c(=O)c(F)c(Nc2ccc(I)cc2F)c2c(=O)n(OC[C@H](O)CO)cnc21` ; %Inh = 10

Form: compound = `Cc1cccc(-c2nc(Nc3ccc4c(cnn4C)c3)c3ccccc3n2)n1` ; %Inh = 0

Form: compound = `OCCCNc1nccc(-c2c(-c3cccc(C(F)(F)F)c3)nn3cc(C(F)(F)F)ccc23)n1` ; %Inh = 0

====

- Test system: ERK1
- Construct: gene MAPK3
- test conditions: concentration: 1 μM, replicates: in singlicate; n = 1
experimental endpoint: %Inh (%)
Supply the numeric figure in %, leaving out any unit text.

These solved cases illustrate the format of a correct answer.
line notation: Cc1nn2c(=O)cc(N3CCOCC3)nc2n1Cc1cccc(Cl)c1Cl
quantitative readout: 0
//
line notation: Cc1cc(Nc2nc(-c3cccc(C)n3)nc3ccccc23)ccn1
quantitative readout: 0

Form: compound = `CN1C(=O)C(Nc2cc(Cl)c(O)c(Cl)c2)=C(c2ccc(Cl)cc2)C1=O` ; %Inh = 0

Form: compound = `Cc1c(Cn2c(C)nn3c(=O)cc(N4CCO[C@H](C)C4)nc23)cccc1C(F)(F)F` ; %Inh = 17
